- Test system: DU-145 prostate
- Test Description: NCI tumour cell line growth inhibition, 48 h
For each entry below, report its TGI value.
One number for each entry, in µM.

Answer for every listed entry: what is its TGI? The entries follow.
1. C/C(=N\n1c(N)c(C#N)c(-c2ccc(Cl)cc2)c(C#N)c1=O)c1ccncc1
2. COc1ccc(-c2cc(/C=C/C(=O)c3cc(OC)c(OC)c(OC)c3)[nH]n2)cc1OC
3. CN(C)C/C=C/C(=O)Nc1ccc(C(=O)N2CCC[C@@H](Nc3ncc(Cl)c(-c4c[nH]c5ccccc45)n3)C2)cc1
4. COc1ccccc1/C=C\C(=O)c1ccccc1
5. CC1(C)[C@@H]2CC[C@@]1(C)[C@H](O)[C@@H]2SCc1ccccc1

## Output
1. 44.7
2. 4.12
3. 11.1
4. 20.5
5. 40.6

TGI in this record for O=[N+]([O-])/C=C/c1cn(CCCCCn2cc(/C=C/[N+](=O)[O-])c3ccccc32)c2ccccc12 : 7.25

* * *

- Test system: SNB-75 CNS
- Test Description: NCI tumour cell line growth inhibition, 48 h
For each entry below, report its GI50 value.

Examples from the recorded data:
INSERT INTO results (compound, test_readout, result) VALUES
  ('O=C(Nc1ccc(Cl)cc1)Nc1ccccc1CNc1nc(Nc2ccc(OCCN3CCCC3)cc2)ncc1Cl', 'GI50', '2.1 µM'),
  ('CCc1cccc(CC)c1/C=C/c1cncc(C(=O)NC)c1', 'GI50', '7.08 µM'),
  ('O=c1[nH]c2cc(Cl)c(Cl)cc2n2cc3ccccc3c12', 'GI50', '21.6 µM'),
  ('Cn1cc(CO)c2ccccc21', 'GI50', '27.6 µM'),
  ('c1ccc(CC(NCCNC(Cc2ccccc2)c2ccccc2)c2ccccc2)cc1 (configuration not stated)', 'GI50', '1.43 µM');

Answer for every listed entry: what is its GI50? The entries follow.
1. Cn1cnc([N+](=O)[O-])c1Sc1nc(N)nc2nc[nH]c12
2. O=C(/C=C/c1cn(-c2ccccc2)nc1-c1ccc([N+](=O)[O-])cc1)c1ccc(Cl)cc1
3. COc1cc2cc(Oc3ccc(NC(=O)c4cccc5c4OCCO5)cc3)c(C)nc2cc1OC
4. Fc1cc(-c2nnc3n2N=C(c2ccc(Cl)cc2Cl)CS3)c(Cl)cc1Cl
5. COc1ccc2c(c1)nc1n2C(c2ccc(F)cc2)SC1 (configuration not stated)
6. C/C(=N\n1c(N)c(C#N)c(-c2ccc(Cl)cc2)c(C#N)c1=O)c1ccncc1
7. O=C(Nc1cc(S(=O)(=O)c2ccc(Cl)cc2)ccc1Cl)c1cc(I)cc(I)c1O

## Output
1.08 µM
1.65 µM
4.06 µM
> 100 µM
25.6 µM
6.11 µM
19.7 µM

* * *

For each entry below, report its TGI value.
- Tested on: HCT-116 colon
- Test Description: NCI tumour cell line growth inhibition, 48 h

INSERT INTO results (molecule, test_readout, result) VALUES
  ('COc1ccc(-c2cc(/C=C/C(=O)c3cc(OC)c(OC)c(OC)c3)[nH]n2)cc1OC', 'TGI', '1.79 µM');

Answer for every listed entry: what is its TGI? The entries follow.
1. O=C(O)C1C2C=CC(O2)C1C(=O)Nc1ncccn1 (centres undefined)
2. C[C@@]12CCCC(=O)N1[C@@H](CO)C(c1ccccc1)O2 (some centres undefined)
3. CC12CC(C/C1=N/O)C(C)(C)C2 (centres undefined)
4. O=C(O)[C@@H]1CCCC[C@@H]1C(=O)N(C1CCCCC1)C1CCCCC1
5. CC(C)C1CC(CO)(CNc2cc(Cl)nc(N)n2)C1 (centres undefined)
6. O=C1CC2(CCNCC2)C(=O)N1N1CCOCC1
7. NC(=O)c1cc(I)ccc1NC(=O)COc1ccccc1

## Output
1. > 100 µM
2. > 100 µM
3. > 100 µM
4. > 100 µM
5. > 100 µM
6. > 100 µM
7. 16.1 µM

TGI in this record for COc1cc2cc(Oc3ccc(NC(=O)c4cccc5c4OCCO5)cc3)c(C)nc2cc1OC : > 100 µM

* * *

- Test system: HL-60(TB) leukemia
- Test Description: NCI tumour cell line growth inhibition, 48 h
For each entry below, report its TGI value.
Numbers only, in µM.

Answer for every listed entry: what is its TGI? The entries follow.
1. C[C@@H]1C/C=C\C(=O)O[C@H](/C=C/C#C/C=C/C(C)(C)[C@@H](O)c2cccc(O)c2Br)[C@@H](C)/C=C/[C@H](C)C[C@H](OC(N)=O)C1
2. NC(N)=N/N=C/c1c(-c2ccc(Cl)c([N+](=O)[O-])c2)nc2n1CCS2
3. CN(C)CCCC1(c2ccc(F)cc2)OCc2cc(-c3cncc4ccccc34)ccc21 (stereo not drawn)
4. Fc1c[c-]c(-c2ccccn2)c(F)c1.[CH3-].[Pt+2].c1ccc(P(C[PH+](c2ccccc2)c2ccccc2)c2ccccc2)cc1
5. O=C(CSc1nc2ccc(I)cc2c(=O)n1Cc1ccccc1)NN1C(=O)CCC1=O
6. CC[C@@]1(O)C(=O)OCc2c1cc1n(c2=O)Cc2cc3c(N)cccc3nc2-1

## Output
1. 2.26
2. 6.27
3. 4.15
4. 1.56
5. 87.6
6. 0.51

* * *

- Tested on: NCI/ADR-RES ovarian
- Test Description: NCI tumour cell line growth inhibition, 48 h; in the data active = GI50 below about 0.43 µM; inactive = the rest
Parameter call: string, one of active, inactive

The examples below pair each entry with its known result.
INSERT INTO assay_data (compound, class) VALUES
  ('Fc1cc(-c2nnc3n2N=C(c2ccc(Cl)cc2Cl)CS3)c(Cl)cc1Cl', 'inactive'),
  ('CCC(=O)c1cc([N+](=O)[O-])c(Br)s1', 'inactive'),
  ('CCN(CC)CCOc1ccc(/C=C2\CC3C4CC=C5C[C@@H](OC(C)=O)CC[C@]5(C)C4CC[C@]3(C)C2=O)cc1OC (stereo not given in full)', 'inactive'),
  ('O=C(Nc1ccccc1O)c1ccc(CNC(=O)c2ccsc2Nc2ccnc(C(F)(F)F)c2)cc1', 'inactive'),
  ('COc1ccccc1/C=C\C(=O)c1ccccc1', 'inactive'),
  ('O=c1[nH]c2cc(Cl)c(Cl)cc2n2cc3ccccc3c12', 'inactive'),
  ('CCCn1cnc2c(SCc3ccccc3)nc(N)nc21', 'inactive'),
  ('COc1ccc(C(=O)C[C@]2(O)C(=O)Nc3c(Cl)ccc(Cl)c32)cc1', 'active');

## Input Query: recorded result category for CN(C)C(=O)SC1=C(c2c(Cl)cccc2Cl)C(=O)c2ccccc21 in this test
## Output inactive

## Input Query: recorded result category for C1=C2CNCC3=Cc4ccc5ccccc5c4OC23Oc2c1ccc1ccccc21 in this test
## Output inactive

## Input Query: recorded result category for Cc1n(Cc2ccc3ccccc3c2)c(Cl)c(Cl)[n+]1Cc1ccc2ccccc2c1 in this test
## Output inactive

## Input Query: recorded result category for COc1ccc(-c2cc(/C=C/C(=O)c3cc(OC)c(OC)c(OC)c3)[nH]n2)cc1OC in this test
## Output inactive

## Input Query: recorded result category for Nc1ncnc2c1c(-c1ccc(Oc3ccccc3)cc1)nn2C[C@@H]1SSC[C@@H]1O in this test
## Output inactive

## Input Query: recorded result category for CCc1cccc(CC)c1/C=C/c1cncc(C(=O)NC)c1 in this test
## Output inactive

## Input Query: recorded result category for COc1cc2nnn3c4ncccc4c(N=O)c3c2cc1OC in this test
## Output inactive

* * *

- Test system: HCT-15 colon
- Test Description: NCI tumour cell line growth inhibition, 48 h
Test Readout: GI50

Examples from the recorded data:
INSERT INTO assay_data (molecule, result) VALUES
  ('Oc1[nH]c2ccccc2c1/C=c1/cc2c(c(-c3ccc(C(F)(F)F)cc3)n1)=Nc1ccccc1-2', '3590 nM'),
  ('CC(=O)[CH-]C(=O)c1ccccc1.CC(=O)[CH-]C(=O)c1ccccc1.[CH2-]CCC.[CH2-]CCC.[Sn+4]', '1290 nM');

Next up:
Record COc1cc(-n2cc(-c3cc(O)c(C/C=C(\C)CCC=C(C)C)c(O)c3)nn2)cc2c1O[C@]1(C)CC[C@@H](O)C(C)(C)[C@H]1C2 / HCT-15 colon, GI50 recorded as 1080 nM

* * *

- Test system: ACHN renal
- Test Description: NCI tumour cell line growth inhibition, 48 h; in the data active = GI50 below about 0.43 µM; inactive = the rest
Parameter call: string, one of 1 (yes) for active, 0 (no) for inactive

## Input Query: recorded result category for COC(=O)[C@H](Cc1ccccc1)NC(=O)c1csc([C@@H](C[C@H](C(C)C)N(C)C(=O)[C@@H](NC(=O)[C@H]2CCCN2C)C2CC2)OC(C)=O)n1 in this test
## Output 0 (no)

## Input Query: recorded result category for C=CC1=CC(C)C[C@]1(O)C(=O)OC (some centres undefined) in this test
## Output 0 (no)

## Input Query: recorded result category for NC(N)=N/N=C/c1c(-c2ccc(Cl)c([N+](=O)[O-])c2)nc2n1CCS2 in this test
## Output 0 (no)

src = PubChem BioAssay (NCI)
